tested on: 362531-283-R-J2-PDC complex spheroid viability; assay: Anticancer human tumor 362531-283-R-J2-PDC patient-derived colon adenocarcinoma cell line growth inhibition [RAS]; settings: second compound 0.3 µM; first compound 0.316 µM; active = viability on the fitted dose curve at most 10% of control; inactive = the rest
Classes used: active, inactive

Molecule	Classification
C=CC(=O)Nc1cc(Nc2nccc(-c3cn(C)c4ccccc34)n2)c(OC)cc1N(C)CCN(C)C + CCn1c(-c2cccnc2C(C)OC)c2c3cc(ccc31)N1CCOC(CC(NC(=O)C(C(C)C)N(C)C(=O)C3(F)CCN(C(=O)C#CC(C)(C)N(C)C)CC3)C(=O)N3CCCC(N3)C(=O)OCC(C)(C)C2)C1	inactive
O=C(c1ccc(F)c(F)c1Nc1ccc(I)cc1F)N1CC(O)([C@@H]2CCCCN2)C1 + CCn1c(-c2cc(N3CCN(C)CC3)cnc2C(C)OC)c2c3cc(ccc31)-c1csc(n1)CC(NC(=O)C1CC1C)C(=O)N1CCCC(N1)C(=O)OCC(C)(C)C2	active
CC1(O)CCCC1n1c(=O)c(C(F)F)cc2cnc(NC3CCN(S(C)(=O)=O)CC3)nc21 (centres undefined) + CCn1c(-c2cccnc2C(C)OC)c2c3cc(ccc31)N1CCOC(CC(NC(=O)C(C(C)C)N(C)C(=O)C3(F)CCN(C(=O)C#CC(C)(C)N(C)C)CC3)C(=O)N3CCCC(N3)C(=O)OCC(C)(C)C2)C1	inactive
CC(C)NCC(C(=O)N1CCN(c2ncnc3c2C(C)CC3O)CC1)c1ccc(Cl)cc1 (centres undefined) + CCn1c(-c2cc(N3CCN(C)CC3)cnc2C(C)OC)c2c3cc(ccc31)-c1csc(n1)CC(NC(=O)C1CC1C)C(=O)N1CCCC(N1)C(=O)OCC(C)(C)C2	inactive

###

test system: 362531-283-R-J2-PDC complex spheroid viability; assay: Anticancer human tumor 362531-283-R-J2-PDC cell line growth inhibition [RAS]; settings: second compound 0.00949 µM; first compound 0.0316 µM; stronger effect = lower value;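 also: spheroids exposed to the agents for 7 days before readout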;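 as to viability, T/C: luminescence viability as percent of DMSO vehicle control wells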

Compound	Units Of Measure	viability, T/C
Nc1ccn(C2OC(CO)C(O)C2(F)F)c(=O)n1 (stereo not given) + CCn1c(-c2cccnc2C(C)OC)c2c3cc(ccc31)N1CCOC(CC(NC(=O)C(C(C)C)N(C)C(=O)C3(F)CCN(C(=O)C#CC(C)(C)N(C)C)CC3)C(=O)N3CCCC(N3)C(=O)OCC(C)(C)C2)C1	%	73.4
CC1(O)CCCC1n1c(=O)c(C(F)F)cc2cnc(NC3CCN(S(C)(=O)=O)CC3)nc21 (stereo not given) + CCn1c(-c2cc(N3CCN(C)CC3)cnc2C(C)OC)c2c3cc(ccc31)-c1csc(n1)CC(NC(=O)C1CC1C)C(=O)N1CCCC(N1)C(=O)OCC(C)(C)C2	%	94.6
C=CC(=O)N1CCN(c2nc(OCC3CCCN3C)nc3c(F)c(-c4nc(N)cc(C)c4C(F)(F)F)c(Cl)cc23)C(C)C1 (stereo not given) + CCn1c(-c2cccnc2C(C)OC)c2c3cc(ccc31)N1CCOC(CC(NC(=O)C(C(C)C)N(C)C(=O)C3(F)CCN(C(=O)C#CC(C)(C)N(C)C)CC3)C(=O)N3CCCC(N3)C(=O)OCC(C)(C)C2)C1	%	97.2
C=CC(=O)Nc1cc(Nc2nccc(-c3cn(C)c4ccccc34)n2)c(OC)cc1N(C)CCN(C)C + CCn1c(-c2cc(N3CCN(C)CC3)cnc2C(C)OC)c2c3cc(ccc31)-c1csc(n1)CC(NC(=O)C1CC1C)C(=O)N1CCCC(N1)C(=O)OCC(C)(C)C2	%	81.1
Cc1nc(N2CCC3(CC2)COC(C)C3N)c(CO)nc1Sc1ccnc(N)c1Cl (stereo not given) + CCn1c(-c2cc(N3CCN(C)CC3)cnc2C(C)OC)c2c3cc(ccc31)-c1csc(n1)CC(NC(=O)C1CC1C)C(=O)N1CCCC(N1)C(=O)OCC(C)(C)C2	%	104

###

test system: 362531-283-R-J2-PDC complex spheroid viability; experiment: Anticancer human tumor 362531-283-R-J2-PDC cell line growth inhibition [RAS]; conditions: curve of first compound; second compound 0.0316 µM;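 also: spheroids exposed to the agents for 7 days before readout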

Molecule	IC50
Cc1nc(N2CCC3(CC2)COC(C)C3N)c(CO)nc1Sc1ccnc(N)c1Cl (stereo not given) + C=CC(=O)N1CCN(c2nc(OCC3CCCN3C)nc3c(F)c(-c4nc(N)cc(C)c4C(F)(F)F)c(Cl)cc23)C(C)C1	> 10 µM
CCN1CCN(Cc2ccc(Nc3ncc(F)c(-c4cc(F)c5nc(C)n(C(C)C)c5c4)n3)nc2)CC1 + C=CC(=O)N1CCN(c2nc(OCC3CCCN3C)nc3c(F)c(-c4nc(N)cc(C)c4C(F)(F)F)c(Cl)cc23)C(C)C1	> 1 µM
C=CC(=O)N1CCN(c2nc(OCC3CCCN3C)nc3c(F)c(-c4nc(N)cc(C)c4C(F)(F)F)c(Cl)cc23)C(C)C1 (stereo not given) + C#Cc1c(F)ccc2cc(O)cc(-c3ncc4c(N5CC6CCC(C5)N6)nc(OCC56CCCN5CC(F)C6)nc4c3F)c12	> 1 µM
CC(C)NCC(C(=O)N1CCN(c2ncnc3c2C(C)CC3O)CC1)c1ccc(Cl)cc1 (stereo not given) + C#Cc1c(F)ccc2cc(O)cc(-c3ncc4c(N5CC6CCC(C5)N6)nc(OCC56CCCN5CC(F)C6)nc4c3F)c12	> 10 µM
C[C@@H](NC(=O)c1ncnc(N)c1Cl)c1ncc(C(=O)Nc2cc(C(F)(F)F)c(Cl)cn2)s1 + C#Cc1c(F)ccc2cc(O)cc(-c3ncc4c(N5CC6CCC(C5)N6)nc(OCC56CCCN5CC(F)C6)nc4c3F)c12	> 10 µM
C[C@@H](NC(=O)c1ncnc(N)c1Cl)c1ncc(C(=O)Nc2cc(C(F)(F)F)c(Cl)cn2)s1 + C=CC(=O)N1CCN(c2nc(OCC3CCCN3C)nc3c(F)c(-c4nc(N)cc(C)c4C(F)(F)F)c(Cl)cc23)C(C)C1	> 10 µM
CC1(O)CCCC1n1c(=O)c(C(F)F)cc2cnc(NC3CCN(S(C)(=O)=O)CC3)nc21 (stereo not given) + C#Cc1c(F)ccc2cc(O)cc(-c3ncc4c(N5CC6CCC(C5)N6)nc(OCC56CCCN5CC(F)C6)nc4c3F)c12	> 10 µM
C=CC(=O)Nc1cc(Nc2nccc(-c3cn(C)c4ccccc34)n2)c(OC)cc1N(C)CCN(C)C + C=CC(=O)N1CCN(c2nc(OCC3CCCN3C)nc3c(F)c(-c4nc(N)cc(C)c4C(F)(F)F)c(Cl)cc23)C(C)C1	> 1 µM
CC(C)n1nc(-c2ccc3oc(N)nc3c2)c2c(N)ncnc21 + C#Cc1c(F)ccc2cc(O)cc(-c3ncc4c(N5CC6CCC(C5)N6)nc(OCC56CCCN5CC(F)C6)nc4c3F)c12	> 0.1 µM
CC1(C)CCC(Nc2ncc(C(F)(F)F)c(-c3c[nH]c4c(P(C)(C)=O)c(C#N)ccc34)n2)CN1 (stereo not given) + C=CC(=O)N1CCN(c2nc(OCC3CCCN3C)nc3c(F)c(-c4nc(N)cc(C)c4C(F)(F)F)c(Cl)cc23)C(C)C1	> 0.3 µM

###

system: 362531-283-R-J2-PDC complex spheroid viability; experiment: Anticancer human tumor 362531-283-R-J2-PDC cell line growth inhibition [RAS]; conditions: second compound 0.00949 µM; first compound 0.0316 µM; stronger effect = lower value;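 also: spheroids exposed to the agents for 7 days before readout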;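 as to viability, T/C: luminescence viability as percent of DMSO vehicle control wells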
Threshold 90%. viability, T/C below it: met. viability, T/C at it or above: not met.

Compound	Classification
CC(C)NCC(C(=O)N1CCN(c2ncnc3c2C(C)CC3O)CC1)c1ccc(Cl)cc1 (configuration not stated) + CCn1c(-c2cccnc2C(C)OC)c2c3cc(ccc31)N1CCOC(CC(NC(=O)C(C(C)C)N(C)C(=O)C3(F)CCN(C(=O)C#CC(C)(C)N(C)C)CC3)C(=O)N3CCCC(N3)C(=O)OCC(C)(C)C2)C1	not met
CC(C)n1nc(-c2ccc3oc(N)nc3c2)c2c(N)ncnc21 + CCn1c(-c2cc(N3CCN(C)CC3)cnc2C(C)OC)c2c3cc(ccc31)-c1csc(n1)CC(NC(=O)C1CC1C)C(=O)N1CCCC(N1)C(=O)OCC(C)(C)C2	met
CC(Nc1ccc2c(c1)OCCn1cc(N3C(=O)OCC3C(F)F)nc1-2)C(N)=O (configuration not stated) + CCn1c(-c2cccnc2C(C)OC)c2c3cc(ccc31)N1CCOC(CC(NC(=O)C(C(C)C)N(C)C(=O)C3(F)CCN(C(=O)C#CC(C)(C)N(C)C)CC3)C(=O)N3CCCC(N3)C(=O)OCC(C)(C)C2)C1	not met
CC(C)n1nc(-c2ccc3oc(N)nc3c2)c2c(N)ncnc21 + CCn1c(-c2cccnc2C(C)OC)c2c3cc(ccc31)N1CCOC(CC(NC(=O)C(C(C)C)N(C)C(=O)C3(F)CCN(C(=O)C#CC(C)(C)N(C)C)CC3)C(=O)N3CCCC(N3)C(=O)OCC(C)(C)C2)C1	met
CCN1CCN(Cc2ccc(Nc3ncc(F)c(-c4cc(F)c5nc(C)n(C(C)C)c5c4)n3)nc2)CC1 + CCn1c(-c2cc(N3CCN(C)CC3)cnc2C(C)OC)c2c3cc(ccc31)-c1csc(n1)CC(NC(=O)C1CC1C)C(=O)N1CCCC(N1)C(=O)OCC(C)(C)C2	not met
O=C(c1ccc(F)c(F)c1Nc1ccc(I)cc1F)N1CC(O)([C@@H]2CCCCN2)C1 + CCn1c(-c2cccnc2C(C)OC)c2c3cc(ccc31)N1CCOC(CC(NC(=O)C(C(C)C)N(C)C(=O)C3(F)CCN(C(=O)C#CC(C)(C)N(C)C)CC3)C(=O)N3CCCC(N3)C(=O)OCC(C)(C)C2)C1	not met
Nc1ccn(C2OC(CO)C(O)C2(F)F)c(=O)n1 (configuration not stated) + CCn1c(-c2cc(N3CCN(C)CC3)cnc2C(C)OC)c2c3cc(ccc31)-c1csc(n1)CC(NC(=O)C1CC1C)C(=O)N1CCCC(N1)C(=O)OCC(C)(C)C2	met
